# System: IGROV1 ovarian
# EXPERIMENT: NCI tumour cell line growth inhibition, 48 h
PARAMETER: TGI

Observe how each entry below is paired with its result.
> print(dat)
                                   molecule  observed.value
1  Cc1c(/C=N/NC(=O)c2ccccc2O)c(=O)n(-c2ccccc2)n1C        > 100 µM
2  CN(C)CCNC(=O)Cn1ccc(=O)c2cc([N+](=O)[O-])ccc21        > 100 µM
3                    CCNCCNC(=O)c1ccc(I)cc1        > 100 µM
4  CN1CCC(CNc2cc(C3(C(=O)Nc4cc(C(=O)Nc5ccc(Cl)c(C(F)(F)F)c5)ccc4F)CC3)ncn2)CC1         6.19 µM
5  COc1cc(/C=C/C(=O)/C=C/c2cc(OC)c3c(c2)OCO3)cc2c1OCO2        > 100 µM

Value sought for every listed molecule: TGI.
1. c1ccc(C2ONC3=NCCN32)cc1 (stereo not drawn)
2. O=[N+]([O-])c1ccccc1OCCOc1ccccc1[N+](=O)[O-]
3. CC(=O)O[C@H]1CC(C)(C)C(=C=C/C(C)=C/C=C/C=C/C=C(C)/C=C2C=C(/C=C/[C@@]34O[C@]3(C)C[C@@H](O)CC4(C)C)C(=O)O/2)[C@](C)(O)C1
4. CCOc1ccccc1CCN=C1NC(=O)/C(=C/c2ccc3ncccc3c2)S1
5. C=C1CCC2C3(C)COC(C)(C)OC3CCC2(C)C1C/C=C1/C(=O)OCC1OC(C)=O (stereo not drawn)

> 100 µM
> 100 µM
7.72 µM
15 µM
6.84 µM

###

So I've got a bunch of compounds here, and I need their TGI values.
# System: SNB-19 CNS
# EXPERIMENT: NCI tumour cell line growth inhibition, 48 h

> print(dat)
                                  structure  observed.value
1          COC(=O)c1sc(C(=O)OC)c2c1CS(=O)C2        > 100 µM
2  CC(C)(C)c1ccccc1N1C(=O)c2ccc3c4c(ccc(c24)C1=O)N(c1ccccc1C(C)(C)C)C3=O        > 100 µM

Alright, here's another compound for you.
Specify reported TGI for the compound shown: Cc1c(/C=N/NC(=O)c2ccccc2O)c(=O)n(-c2ccccc2)n1C
> 100 µM

###

# Tested on: UACC-62 melanoma
# EXPERIMENT: NCI tumour cell line growth inhibition, 48 h
PARAMETER: TGI

Observe how each entry below is paired with its result.
> print(dat)
                                   compound  observed.value
1  C=C(c1ccccc1)C1(O)CCCCC1N (stereo not drawn)        > 100 µM
2  COC1CC(N)(c2ccccc2)C(O)C(C)O1 (stereo not drawn)        > 100 µM

Alright, here's another compound for you.
Specify reported TGI for the compound shown: C=CCOC(=O)N1c2ccc(O[Si](C)(C)C(C)(C)C)cc2[C@@]23O[C@@]24[C@@H]1C#C/C=C\C#C[C@]3(O)C(OC)(OC)C[C@@H]4C
> 42 µM

###

# Tested on: A549 NSCLC
# EXPERIMENT: NCI tumour cell line growth inhibition, 48 h
PARAMETER: TGI

> print(dat)
                               structure  observed.value
1  O=C(O)c1nc(NCc2nc3cc(Cl)ccc3o2)n[nH]1        > 100 µM

Value sought for every listed molecule: TGI.
1. O=C(/C=C/c1ccccc1)Oc1cccc2cccnc12
2. CN1CCN(C(=S)N(C)C(=O)c2ccco2)CC1
3. CC[O-].CC[O-].O=C([CH-]C(=O)c1ccccc1)CCCCCCCCC(=O)[CH-]C(=O)c1ccccc1.[Ti+4]

76.9 µM
> 100 µM
> 100 µM

###

# Tested on: SNB-19 CNS
# EXPERIMENT: NCI tumour cell line growth inhibition, 48 h
PARAMETER: TGI

Observe how each entry below is paired with its result.
> print(dat)
                                   compound  observed.value
1  O=C1C=CC(=O)c2c1ccc1c3ccccc3n(Cc3ccc([N+](=O)[O-])cc3)c21        > 100 µM
2  O=[N+]([O-])c1ccccc1OCCOc1ccccc1[N+](=O)[O-]        > 100 µM
3              O=c1oc2ccccc2c2c1Sc1ccccc1N2        > 100 µM

Value sought for every listed compound: TGI.
1. O=c1[nH]/c(=C/c2ccc(OCc3ccccc3)cn2)c(=O)[nH]/c1=C/c1ccccc1
2. CCOC(=O)c1c(C)n(Cc2ccc(Cl)cc2Cl)c2c1cc(O)c1[nH]c3c(c12)CCCC3
3. O=C(/C=C/c1ccccc1)Oc1cccc2cccnc12
4. NC(=O)CNC(=O)[C@@H]1CC(OCCC(=O)O)CN1C(=O)C1CCCN1C(=O)OCc1ccccc1 (some centres undefined)
5. COc1cccc(N2C(=O)CSC2c2cccc(Oc3ccccc3)c2)c1 (centres undefined)
6. CCCCCOc1ccc(C=Nc2ccc(CCc3ccc(N=Cc4ccc(OCCCCC)cc4)cc3)cc2)cc1

1: > 100 µM; 2: 58 µM; 3: > 75.2 µM; 4: > 100 µM; 5: > 100 µM; 6: > 100 µM

###

# System: MOLT-4 leukemia
# EXPERIMENT: NCI tumour cell line growth inhibition, 48 h
PARAMETER: TGI

Observe how each entry below is paired with its result.
> print(dat)
                                   molecule  observed.value
1  CC(N=NNc1ccc(-c2nc3ccccc3[nH]2)cc1)C(=O)O (stereo not given)        > 100 µM
2  O=C(O)CCNS(=O)(=O)c1ccc(NC(=O)c2ccccc2)cc1        > 100 µM
3  C/C(=N/O)c1cccc(Nc2cc(-n3nnc4ccccc43)nc3ccccc23)c1         > 40 µM
4  CC[O-].CC[O-].O=C([CH-]C(=O)c1ccccc1)CCCCCCCCC(=O)[CH-]C(=O)c1ccccc1.[Ti+4]        > 100 µM

Alright, here's another molecule for you.
Specify reported TGI for the molecule shown: Cn1c(=O)c2c(nc3n(CC(O)CCl)c(=O)ccn23)n(C)c1=O (stereo not given)
92.1 µM

###

# Test system: A498 renal
# EXPERIMENT: NCI tumour cell line growth inhibition, 48 h
So I've got a bunch of compounds here, and I need their TGI values.

Observe how each entry below is paired with its result.
COMPOUND	TGI
O=c1oc2ccccc2c2c1Sc1ccccc1N2	> 100 µM
O=c1ncccn1[C@@H]1O[C@H](CO)[C@H](O)C1O (stereo partly specified)	> 100 µM
C1CSCCCSCCCSCCCSCCCSCCCSCCCSCCCSC1	> 100 µM
CCO/C(=N/S(=O)(=O)C(F)(F)F)N(C(C)C)C(C)C	> 100 µM
N#CC(N)=Nc1ccccc1	> 100 µM
O=[N+]([O-])c1ccccc1OCCOc1ccccc1[N+](=O)[O-]	> 100 µM
COc1cc2c(c(O)c1O)C(=O)C1CCC(=O)N1C2c1cccc2ccccc12 (stereo unspecified)	> 50 µM
CC(=O)NC1C(OCc2ccccc2)OC(CO)C(O)C1OCC(=O)N1CCCC1C(=O)N[C@@H](CCC(=O)NCCCCNc1c2ccccc2nc2cccc([N+](=O)[O-])c12)C(N)=O (stereo partly specified)	> 100 µM

Value sought for every listed compound: TGI.
1. C[C@@H]1OC(=O)C[C@H]2CC(=O)N(CCC3CN(C(=O)OCc4ccccc4)c4ccccc43)C[C@@H]21 (stereo partly specified)
2. CC(=O)Nc1ccc2c(C)c3c(nc2n1)[nH]c1ccccc13
3. CC(N=NNc1ccc(-c2nc3ccccc3[nH]2)cc1)C(=O)O (stereo unspecified)

["> 100 µM", "> 100 µM", "> 100 µM"]

###

# System: SW-620 colon
# EXPERIMENT: NCI tumour cell line growth inhibition, 48 h
PARAMETER: TGI

> print(dat)
                                   compound  observed.value
1  CCCN1C(=O)NC(=O)C(CC)(N2C(=O)c3c(F)c(F)c(F)c(F)c3C2=O)C1=O (stereo not given)         2.82 µM
2                CNC(=S)Nc1ccc(OC)c2ccccc12         > 10 µM
3     Cc1cc2c(C)nn(Cc3ccccc3)c2c(C(=O)O)c1C        > 100 µM
4  [N-]=[N+]=Nc1c(Cc2ccccc2)c(Cl)nc2ccccc12        > 100 µM
5  N#CCCN(CCC#N)c1ccc(/C=C2\N=C(c3ccccc3)N(c3ccc(F)cc3)C2=O)cc1        > 100 µM

Value sought for every listed compound: TGI.
1. C1=C(c2ccccc2)SC(N2CCCCC2)S1 (stereo not given)
2. CN(C(=O)/C=C/c1ccccc1)C1C2CN3CCC(O2)C13 (stereo not given)
3. Oc1cccc(Nc2nc3ccccc3c3occc23)c1
4. CC(=O)c1c(C(F)(F)F)n([O-])c2ccccc2[n+]1=O
5. OC1[C@@H]2[C@@H](O)CCCN2C[C@@H](O)[C@H]1O (stereo not given in full)

1. > 100 µM
2. > 100 µM
3. 30.8 µM
4. 13.3 µM
5. > 100 µM
